# measured-on: UniProt P53350
# Sequence (P53350 whole entry, looked up): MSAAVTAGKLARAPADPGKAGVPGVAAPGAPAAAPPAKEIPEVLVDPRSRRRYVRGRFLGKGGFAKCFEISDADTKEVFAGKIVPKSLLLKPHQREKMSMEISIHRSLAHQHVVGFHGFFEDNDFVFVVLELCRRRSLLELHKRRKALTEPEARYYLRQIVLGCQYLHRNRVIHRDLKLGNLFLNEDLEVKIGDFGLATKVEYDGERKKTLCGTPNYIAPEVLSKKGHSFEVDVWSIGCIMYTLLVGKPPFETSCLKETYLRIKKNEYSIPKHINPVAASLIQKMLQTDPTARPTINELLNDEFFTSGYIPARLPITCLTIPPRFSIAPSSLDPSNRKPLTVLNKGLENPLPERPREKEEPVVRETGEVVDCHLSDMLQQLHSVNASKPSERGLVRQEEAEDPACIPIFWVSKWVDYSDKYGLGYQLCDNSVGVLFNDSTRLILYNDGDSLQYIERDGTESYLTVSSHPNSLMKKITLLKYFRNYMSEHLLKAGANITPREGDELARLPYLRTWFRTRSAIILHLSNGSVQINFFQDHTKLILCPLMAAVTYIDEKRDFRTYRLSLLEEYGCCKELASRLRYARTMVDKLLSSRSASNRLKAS
# experiment-summary: KINOMEscan competition binding
# measurement-conditions: compound 10.0 µM
property-name: kinase still bound, per cent of control (%)
Give bare numbers, in %.

Record excerpt, results attached:
Cn1c(=O)n(-c2ccc(C(C)(C)C#N)cc2)c2c3cc(-c4cnc5ccccc5c4)ccc3ncc21 = 100
Cc1ccc2nc(NCCN)c3ncc(C)n3c2c1 = 100
CCN1CCN(Cc2ccc(Nc3ncc4c(n3)N(C)c3ccccc3C(=O)N4C)cc2C(F)(F)F)CC1 = 27
CN(C)C/C=C/C(=O)Nc1cccc(Nc2ncc3c(n2)N(C)c2ccccc2C(=O)N3C)c1 = 22

Form field: reported kinase still bound, per cent of control of `C=CC(=O)Nc1cccc(Oc2nc(Nc3ccc(N4CCN(C)CC4)cc3OC)ncc2Cl)c1`
16
